measured_on: T1, MBP-tagged split mFAP fragment m17 (β-strands 1-7 of mFAP2a)
T1 chain: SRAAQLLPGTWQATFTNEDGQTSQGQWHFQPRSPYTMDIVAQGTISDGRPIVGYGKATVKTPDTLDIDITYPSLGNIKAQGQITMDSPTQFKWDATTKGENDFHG
protocol_notes: fluorescence complementation titration: MBP-tagged m8 titrated into fixed MBP-tagged m17 in 25.0 µM DFHBI-1T; signal did not plateau, Kd is at least the highest titrant concentration
Ends that are not written are not given here.
measurement_type: Kd

**Q:** So what's the measured Kd for this one? RLTGTLQRQE (designed binder, not shown: large carriers, also: MBP tag fused, side and linker not given here) [MBP-tagged split mFAP fragment m8 (β-strand 8 of mFAP2a)]
**A:** ≥ 354 µM
